- target: GST-KRAS (1-166), GTP loaded (Homo sapiens, UniProt P01116, G12V)
- Construct: GST-KRAS (1-166) and GST were covalently immobilized
- Sequence (P01116 1-166 isoform P01116-2 G12V): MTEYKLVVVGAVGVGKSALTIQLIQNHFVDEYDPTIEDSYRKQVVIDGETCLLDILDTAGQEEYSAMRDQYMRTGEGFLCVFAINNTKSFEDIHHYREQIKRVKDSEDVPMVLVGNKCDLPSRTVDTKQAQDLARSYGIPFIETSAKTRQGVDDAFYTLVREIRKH
- procedure text: Surface plasmon resonance analysis
- details: GTP-loaded GST-KRAS (aminoacids 1 to 166) immobilized; read-out: affinity constant (KD)
experimental endpoint: pKd
// pKd is dimensionless: -log10 of concentration (M)

Prompt: For the record COc1ccc(C(c2c(C)n[nH]c2O)c2c(C)n[nH]c2O)cc1Oc1ccc([N+](=O)[O-])cc1 [Example P14B] , what value of pKd is listed for GST-KRAS (1-166), GTP loaded (Homo sapiens, UniProt P01116, G12V)?
Response: 4.48
